B1: FUT8 (parent)
chain: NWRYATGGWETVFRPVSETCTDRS

- Variants of: B1
- assay_protocol: protein stability index of a GFP-peptide fusion (GPS, HEK-293T) (PSI 1-6); higher = more stable;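 further: lentivirally expressed fusions sorted by FACS into six bins by GFP to DsRed ratio, PSI derived from sequencing read proportions per bin multiplied by bin number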
- experimental_setup: c terminus: a fixed tail appended
readout_label: protein stability index
Enter a number only.

Recorded results for 5 variants are shown here.
{"columns": ["variant_spec", "readout_label", "result"],
 "data": [
  ["T19Q", "protein stability index", 2.37],
  ["A5I", "protein stability index", 1.39],
  ["R14N", "protein stability index", 3.41],
  ["T21E", "protein stability index", 1.55],
  ["N1S", "protein stability index", 2.12]
]}

Please look at this variant and report its protein stability index: `F13V` 1.64
